Tested on: OVCAR-5 ovarian
assay.explanation: NCI tumour cell line growth inhibition, 384-well format; in the data active = GI50 below about 0.43 µM; inactive = the rest
Answer with one of the outcomes true (active), false (inactive)

Use these answered entries as a reference point.
| mol.smiles | label.value |
| --- | --- |
| Cc1cnc(-c2ccc(-c3ccc(NC(=O)Nc4c(F)cc(F)cc4F)cc3F)c3c2C(=O)NC3)[nH]1 | false |
| CC[C@@]1(O)C(=O)OCc2c1cc1n(c2=O)Cc2c-1nc1cc(F)c(C)c3c1c2[C@@H](NC(=O)CO)CC3 | true |
| COCCn1c2c([n+](Cc3cnccn3)c1C)C(=O)c1ccccc1C2=O | true |

Next, consider the following compound.
Just curious, what result did "COc1cc(C)[nH]c(=O)c1CNC(=O)c1c(C)n([C@H](C)C2CCN(CC(F)(F)F)CC2)c2ccccc12" get here? false
